Assay: Volume of distribution in Beagle dog at 3 mg/kg, iv administered as bolus dose and 10 mg/kg, po
Format: ADME, organism-based, Canis lupus familiaris
Settings: in vivo
Listed next: entries and their corresponding Vd.
Answer in L/kg, number only, no unit symbol.

- querySmiles: "N#Cc1ccc2ccc(=O)n(CCN3CCC(NCc4cc5c(cn4)OCCO5)CC3)c2c1"
  unitAbbreviation: "L/kg"
  Vd: 8

Now turn to the next compound.
Indicate the recorded Vd value for this compound: COc1ccc2ncc(=O)n(CCN3CCC(NCc4ccc5c(n4)NC(=O)CO5)CC3)c2c1
2

###

Below, each entry is listed alongside its reported AUC.
Assay: AUC in Wistar Han rat at 3 mg/kg, iv administered as bolus dose
Type: ADME, organism-based
Parameters: dose 3 mg/kg, route intravenous
Settings: plasma
Phrase the answer as number then unit, nothing more needed.

- querySmiles: "N#Cc1ccc2ccc(=O)n(CCN3CCC(NCc4cc5c(cn4)OCCO5)CC3)c2c1"
  result: "370 ng·h/mL"

Now turn to the next compound.
Entry COc1ccc2ncc(=O)n(CCN3CCC(NCc4ccc5c(n4)NC(=O)CO5)CC3)c2c1 needs its AUC filled in; supply it.
190 ng·h/mL

###

Assay: Fraction unbound in human plasma at 10 uM by equilibrium dialysis method
Format: ADME, cell-free
property: fraction unbound at 10 µM
Number only, please.

Completed entries (count: 5):
- compound: "N#Cc1ccc2ccc(=O)n(CCN3CC[C@H](NCc4cc5c(cn4)OCCO5)[C@H](F)C3)c2c1"
  fraction unbound at 10 µM: 0.25
- compound: "COc1ccc2ncc(=O)n(CCN3CC[C@@H](NCc4ccc5c(n4)NC(=O)CO5)[C@@H](OC)C3)c2c1"
  fraction unbound at 10 µM: 0.28
- compound: "COc1ccc2ncc(=O)n(CCN3CC[C@@H](NCc4ccc5c(n4)NC(=O)CO5)[C@@H](F)C3)c2c1"
  fraction unbound at 10 µM: 0.25
- compound: "COc1ccc2ncc(=O)n(CCN3CC[C@H](NCc4ccc5c(n4)NC(=O)CO5)[C@@H](F)C3)c2c1 (single isomer, unassigned; enantiomer B)"
  fraction unbound at 10 µM: 0.04
- compound: "CO[C@@H]1CN(CCn2c(=O)ccc3ccc(C#N)cc32)CC[C@H]1NCc1ccc2c(n1)NC(=O)CO2 (single isomer, unassigned; enantiomer 1)"
  fraction unbound at 10 µM: 0.27

Using the record for N#Cc1ccc2ccc(=O)n(CCN3CC[C@@H](NCc4cc5c(cn4)OCCO5)[C@@H](O)C3)c2c1 , state its measured fraction unbound at 10 µM.
0.24

// fetch fraction unbound at 10 µM given entry COc1ccc2ncc(=O)n(CCN3CCC(NCc4ccc5c(n4)NC(=O)CO5)CC3)c2c1
0.26

Provide measured fraction unbound at 10 µM value, entry: CO[C@H]1CN(CCn2c(=O)ccc3ccc(C#N)cc32)CC[C@H]1NCc1ccc2c(n1)NC(=O)CO2
0.5

Supply recorded fraction unbound at 10 µM for COc1ccc2ncc(=O)n(CCN3CC[C@@H](NCc4ccc5c(n4)NC(=O)CO5)[C@@H](O)C3)c2c1 here.
0.05

Please report fraction unbound at 10 µM for the following compound: N#Cc1ccc2ccc(=O)n(CCN3CC[C@H](NCc4ccc5c(n4)NC(=O)CO5)[C@H](O)C3)c2c1
0.21

Provide only the value of recorded fraction unbound at 10 µM for N#Cc1ccc2ccc(=O)n(CCN3CC[C@@H](NCc4ccc5c(n4)NC(=O)CO5)[C@@H](O)C3)c2c1
0.18

Report fraction unbound at 10 µM for N#Cc1ccc2ccc(=O)n(CCN3CC[C@@H](NCc4ccc5c(n4)NC(=O)CO5)[C@@H](F)C3)c2c1
0.2

In one line, give reported fraction unbound at 10 µM of the entry COc1ccc2ncc(=O)n(CCN3CC[C@@H](NCc4cc5c(cn4)OCCO5)[C@@H](O)C3)c2c1 .
0.14

Supply recorded fraction unbound at 10 µM for CO[C@H]1CN(CCn2c(=O)ccc3ccc(C#N)cc32)CC[C@@H]1NCc1cc2c(cn1)OCCO2 (single isomer, unassigned; enantiomer 1) here.
0.13

Note fraction unbound at 10 µM for the compound shown: N#Cc1ccc2ccc(=O)n(CCN3CC[C@@H](NCc4cc5c(cn4)OCCO5)[C@@H](F)C3)c2c1
0.2
